Value source: a melting point compilation (Tetko et al.; mined from patent text by program, amines drawn as free bases though some values may be those of a salt)

melting point values for the molecules below.

Worked cases, answers included:
O=C1[C@@H]2CSC(c3ccccc3)N2C(=O)N1Cc1ccccc1 (stereo partly specified); 79 °C
C/C(=C\c1ccc(C(=O)OCCO)cc1)c1ccc2c(c1)C(C)(C)CCC2(C)C; 138 to 139 °C
COc1ccc(C=CC(=O)Nc2ccncc2)c2c1OC1(CCCC1)C2; 124 to 128 °C
Cc1cccc2c(=O)cc(C(=O)Nc3ccc(CC4SC(=O)NC4=O)cc3)oc12 (stereo unspecified); 305 to 307 °C
CC1CN(C(=O)COc2cc(-c3ccccc3)nc3ccccc23)CC(C)O1 (stereo unspecified); 117 °C

Next molecule, melting point to be filled in.
Ask: # return recorded melting point for input `C=CCNc1nc(NCC=C)c2scc(CC)c2n1`
Result: 55 °C

---

melting point values for the compounds below.

Worked cases, answers included:
CC[C@@]1(C=O)CCCN(CCc2c[nH]c3ccc(OC)cc23)C1=O; 108 °C
O=[N+]([O-])c1ccc(Nc2cccc(C(F)(F)C(F)(F)C(F)(F)C(F)(F)C(F)(F)C(F)(F)C(F)(F)C(F)(F)F)c2)c([N+](=O)[O-])c1; 124 to 125 °C
C#CCC(C)C(=O)N1c2ccccc2C(=O)Nc2cccnc21 (stereo not given); 202 to 204 °C
CC(C)n1c(=O)oc2cc([N+](=O)[O-])cc(F)c21; 122 to 123 °C
CC1Cc2cc3c(cc2C(c2ccc(NC=O)cc2)=NN1C=O)OCO3 (stereo not given); 193 to 195 °C

Ask: # return recorded melting point for input `Cc1cccc(C(=O)O)c1N(C)S(=O)(=O)c1ccc(OCCCCNC(=O)c2ccc3c(c2)OCO3)cc1`
Result: 110 °C

Ask: # return recorded melting point for input `CC(C)(C)CC(=O)Oc1ccc(-c2nn(C3CCCC3)c3c(F)cccc23)cc1`
Result: 74 to 75 °C

---

melting point values for the compounds below.

Oc1cccc(/C=C/c2nc3ccccc3s2)c1; 210 to 211 °C

Ask: # return recorded melting point for input `CC=C(c1ccc(N(C)C)cc1)c1ccc(N(C)C)cc1`
Result: 99 to 101 °C

Ask: # return recorded melting point for input `O=C1c2ccccc2-c2c1c1ccccc1c(=O)n2CCCCCCNS(=O)(=O)c1ccc(Br)cc1`
Result: 188 to 190 °C

Ask: # return recorded melting point for input `Brc1cc(-c2c3ccccc3c(Br)c3sc4ccccc4c23)cc(Br)c1OCc1nnn[nH]1`
Result: 243 to 245 °C

Ask: # return recorded melting point for input CNc1ccccc1CS(=O)c1nccn1-c1ccccn1 (stereo not given)
Result: 135 to 137 °C

---

melting point values for the molecules below.

O=C1CN2CCC1CC2; 58 °C
CC(C(=O)O)c1ccc(-n2cc(Br)cn2)cc1 (stereo not drawn); 154 to 155 °C

Next molecule, melting point to be filled in.
Ask: # return recorded melting point for input CC(=O)OCC(O)(CN(C)S(=O)(=O)c1cc(C)ccc1C)c1ccccc1 (stereo not drawn)
Result: 84 to 85 °C

---

melting point values for the compounds below.

Worked cases, answers included:
Cn1c([N+](=O)[O-])cnc1C=Cc1nnc(-c2ccccc2)s1; 257 °C
COC(=O)c1cc(-c2ccc(OC)c(F)c2)nn(CC2CC2)c1=O; 114 to 117 °C

Next compound, melting point to be filled in.
Ask: # return recorded melting point for input `Cc1cn(C2(C(=O)N(C)C)CCCC2)nc1-c1ccccc1`
Result: 99 to 101 °C

---

melting point values for the molecules below.

NNc1ncnc(Nc2ccc(F)c(C(F)(F)F)c2)n1; 181 to 182 °C
COc1cccc2c1C[C@@H](NC=O)CC2; 140 to 141 °C
Cc1ccc(S(=O)(=O)n2cc(C(C)O)c3ccc(C(=O)Nc4c(Cl)cncc4Cl)cc32)cc1 (centres undefined); 206 to 211 °C
CNCCOc1cc(NC(=O)c2ccc(-c3ccc(-c4noc(C)n4)cc3C)cc2)ccc1OC; 97 to 99 °C
CCOc1nn(-c2ccc(C(F)(F)F)cn2)cc1CCCOc1cc(CCC(=O)O)cc(OC)c1; 99 to 100 °C

Next molecule, melting point to be filled in.
Ask: # return recorded melting point for input `CCCCn1c(=O)c2c(ncn2S(=O)(=O)c2ccc(OC)c(OC)c2)n(CCCC)c1=O`
Result: 134 to 135 °C

---

melting point values for the compounds below.

Worked cases, answers included:
CN(C)C(=NC(=O)C(O)(C(N)=O)c1ccc(Cl)c(Cl)c1)N(C)C (centres undefined); 98 to 100 °C
CC(C)c1nn(-c2ccc([N+](=O)[O-])cn2)cc1CCCO; 130 to 131 °C
CN(C)C(=S)n1cnc(S(=O)(=O)CC2CCCC2)n1; 65 °C

Next compound, melting point to be filled in.
Ask: # return recorded melting point for input CCc1c(C)cc(C(=O)NC(C(=O)OC)c2cccs2)c(=O)n1Cc1ccc(F)cc1 (centres undefined)
Result: 182 to 184 °C

---

melting point values for the compounds below.

Worked cases, answers included:
COC(=O)c1cccc2nc(N3CCOCC3)n(Cc3ccc(-c4ccccc4-c4nnn[nH]4)cc3)c12; 163 to 167 °C
Cc1ccc(C2=CCC(O)CC2)cc1 (stereo not drawn); 96.5 to 97.5 °C

Next compound, melting point to be filled in.
Ask: # return recorded melting point for input `COc1ccc([N+](=O)[O-])c(C=CN2CCCC2)c1`
Result: 71 to 72 °C

---

endpoint.label: melting point

c1cn(CC2(CCCC3CCCC3)SCCS2)cn1; 136 to 137 °C
CCCCc1oc2ccccc2c1C(=O)NCc1ccc2c(-c3ccc(C)cc3)c(OCc3nnn[nH]3)ccc2c1; 162 to 166 °C
COc1ccc(Cc2ncc[nH]2)cc1; 158 to 160 °C
CCc1noc(-c2cn(-c3cccc(O)c3)cn2)n1; 214 to 215 °C
Cc1ccc2c(c1)[C@@]1(C)Cc3ccccc3[C@@]1(C)N2 (relative stereo); 208 to 212 °C
C/C=C/c1ccc2nc(Cl)c(S(N)(=O)=O)n2n1; 225 to 229 °C
Nc1nc2c(ncn2CCC(COC=O)COC=O)c(=O)[nH]1; 195 to 198 °C
CS(=O)(=O)c1ccc(-c2cc(-c3csc(N)n3)sc2-c2ccc(F)cc2)cc1; 243 to 245 °C

Ask: # return recorded melting point for input `O=C(c1ccccc1)c1ccc(S)cc1`
Result: 72 to 75 °C

Ask: # return recorded melting point for input `CCNc1cccnc1N(CC)CC1CCN(C(=O)c2ccc[nH]2)CC1`
Result: 109 to 110 °C

Ask: # return recorded melting point for input `CC(C)(SC(=S)c1ccccc1)c1ccc(Cl)cc1`
Result: 77 to 78 °C

---

melting point values for the compounds below.

Worked cases, answers included:
CC(C)(C)c1ccc(O)cc1Cl; 65 to 67 °C
COc1cc2ncc(NC3CCCCC3)nc2cc1N1CCOCC1; 194 to 196 °C

Ask: # return recorded melting point for input `CCOC(=O)c1cc(C=Cc2ccc(O)c(OC)c2)n[nH]1`
Result: 99 to 101 °C

Ask: # return recorded melting point for input Cc1ccc(C)c(C2=C(O)C(CC3CCS(=O)(=O)CC3)NC2=O)c1 (configuration not stated)
Result: 244 to 246 °C

Ask: # return recorded melting point for input `Nc1ccc(Cl)cc1C(=O)c1ccc(Cl)cc1`
Result: 106 to 107 °C

Ask: # return recorded melting point for input `C#CCn1c(CC)nc2c(N)nc3ccccc3c21`
Result: 182 to 184 °C

Ask: # return recorded melting point for input `CC(=O)N1CCC(c2ccc(S(N)(=O)=O)cc2)CC1`
Result: 196 to 197 °C

---

endpoint.label: melting point

Worked cases, answers included:
Oc1cccc(NCCc2ccccn2)c1; 118 to 120 °C
O=C1OC2(CC(c3ccc(F)cc3)=NO2)c2ccccc21 (stereo unspecified); 142 to 145 °C

Ask: # return recorded melting point for input `COc1ccccc1N1CCN(CCCCN2CSCC2=O)CC1`
Result: 80 to 81 °C

Ask: # return recorded melting point for input `CC(=O)Nc1cccc2c(=O)n(C)c3ccccc3c(=O)c12`
Result: 199 to 201 °C

Ask: # return recorded melting point for input `Cn1cc(-c2ccccc2)c(=O)c(-c2cc(Cl)cc(Cl)c2)c1`
Result: 131 to 135 °C

Ask: # return recorded melting point for input `CCCC1N(C)c2cccc3cccc(c23)N1C`
Result: 70 to 71 °C

---

endpoint.label: melting point

CSCc1cn(C)c2cc(C(F)(F)F)ccc2c1=O; 182 to 184 °C
CSc1ccc(-c2c(C#N)cnn2-c2ccc(F)cc2)cc1; 122 to 123 °C
COc1ccc2cc(-c3ccnc(N(C)C)n3)cc(NC3CCN(c4ncnc5[nH]nc(Br)c45)CC3)c2c1; 167 to 172 °C
O=C(c1ccc2[nH]c(=O)n(Cc3ccc(F)cc3)c(=O)c2c1)c1nc(Br)c2ccccn12; 325 °C
CC(C)Oc1c(F)cc2c(O)c(C(=O)NCc3ccc(Cl)cc3)cnc2c1F; 207 to 209 °C
COc1ccc(COc2cccc(C=C(C=O)C(C=O)=Cc3cccc(OCc4ccc(OC)cc4)c3)c2)cc1; 117 to 119 °C
COc1ccc(N(CCCC(=O)O)C(=O)CCN(C(=O)c2ccc(Cl)cc2)c2c(C)cccc2C)cc1; 138 to 140 °C
CNC[C@H]1CC[C@H](C(=O)O)CC1; 261 °C
COc1cc2c(=O)n3nc(C(=O)O)cc3n(C)c2cc1OC; 284 to 285 °C
CCS(=O)(=O)Nc1ccc([N+](=O)[O-])cc1SC1CCCCC1; 119 to 120 °C

Ask: # return recorded melting point for input `O=C(Nc1ccc2ccc(-c3ccccc3Cl)nc2n1)c1ccccc1`
Result: 156 °C

Ask: # return recorded melting point for input `N#Cc1cnn2c(-c3ccccc3)ccnc12`
Result: 230 to 232 °C

Ask: # return recorded melting point for input OC(CN1CCN(C(c2ccccc2)c2ccccc2)CC1)c1ccc(OCc2ccccc2)cc1OCc1ccccc1 (stereo unspecified)
Result: 151 °C

Ask: # return recorded melting point for input `O=C(CCl)Nc1ccccn1`
Result: 114 to 117 °C

Ask: # return recorded melting point for input Fc1cc2c(c(-c3c(Cl)cccc3Cl)c1)OC(CNCC1CC1)C2 (stereo unspecified)
Result: 130 to 133 °C

Ask: # return recorded melting point for input `Cc1ccc(-c2cccnc2)nc1`
Result: 40 to 41 °C
